- target_entity: HDAC6 (Homo sapiens, UniProt Q9UBN7)
- Construct: purchased Reaction Biology Corporation (assay run by the CRO)
- Sequence (Q9UBN7 whole entry): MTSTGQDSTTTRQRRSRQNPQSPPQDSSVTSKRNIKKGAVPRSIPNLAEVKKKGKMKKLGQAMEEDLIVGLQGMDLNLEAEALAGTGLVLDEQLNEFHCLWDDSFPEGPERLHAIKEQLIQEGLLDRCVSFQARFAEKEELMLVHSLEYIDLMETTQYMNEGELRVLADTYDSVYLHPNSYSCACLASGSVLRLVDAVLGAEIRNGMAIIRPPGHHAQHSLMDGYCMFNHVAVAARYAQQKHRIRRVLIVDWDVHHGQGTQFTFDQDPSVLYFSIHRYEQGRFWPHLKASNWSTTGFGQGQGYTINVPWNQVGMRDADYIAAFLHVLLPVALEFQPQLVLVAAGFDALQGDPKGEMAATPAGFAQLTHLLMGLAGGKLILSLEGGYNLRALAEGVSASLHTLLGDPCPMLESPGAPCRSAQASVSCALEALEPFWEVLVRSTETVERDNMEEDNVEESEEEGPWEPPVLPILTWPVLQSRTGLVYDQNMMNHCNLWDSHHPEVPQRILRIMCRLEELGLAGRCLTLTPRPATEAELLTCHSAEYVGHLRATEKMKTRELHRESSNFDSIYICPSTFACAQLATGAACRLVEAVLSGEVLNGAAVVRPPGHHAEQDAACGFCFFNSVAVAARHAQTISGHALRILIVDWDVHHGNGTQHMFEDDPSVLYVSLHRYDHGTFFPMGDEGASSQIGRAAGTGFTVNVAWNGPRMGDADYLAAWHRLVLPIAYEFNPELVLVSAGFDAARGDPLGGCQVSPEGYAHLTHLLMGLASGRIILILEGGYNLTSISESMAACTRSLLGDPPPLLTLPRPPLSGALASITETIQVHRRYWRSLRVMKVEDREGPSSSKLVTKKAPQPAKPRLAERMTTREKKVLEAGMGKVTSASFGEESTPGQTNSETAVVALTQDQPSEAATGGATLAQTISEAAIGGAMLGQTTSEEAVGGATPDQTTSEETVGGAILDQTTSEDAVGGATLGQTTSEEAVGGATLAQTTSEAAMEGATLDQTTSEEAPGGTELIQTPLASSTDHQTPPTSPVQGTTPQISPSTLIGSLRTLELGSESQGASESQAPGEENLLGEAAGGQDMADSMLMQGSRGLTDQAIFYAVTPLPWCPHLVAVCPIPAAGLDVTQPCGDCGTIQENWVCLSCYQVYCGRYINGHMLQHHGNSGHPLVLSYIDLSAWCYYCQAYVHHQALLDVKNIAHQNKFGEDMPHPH
- assay_comment: HDAC6 inhibition, full IC50 measurement (Reaction Biology; fluorogenic p53 peptide RHKK(Ac)AMC)
- Assay type: biochemical
- measurement_conditions: Conc. 1.11E-06 M, t2
Peptide text beside a SMILES is read from it.
In this section we review reported HDAC6 activity raw data (signal) values for a set of molecules.
measurement_label: HDAC6 activity raw data (signal)

[
  {
    "molecule": "NCCCC[C@@H]1NC(=O)[C@@H]2CCCN2C(=O)[C@H](CC(N)=O)NC(=O)[C@H](CCCCCS)NC(=O)CNC(=O)[C@H](Cc2c[nH]c3ccccc23)NC(=O)[C@@H](CCCCN)NC(=O)[C@H](CCC(N)=O)NC1=O [des1.1.0, SHA-Asn-Pro-Lys-Gln-dLys-Trp-Gly] (HELM PEPTIDE1{G.[O=C([C@H](CCCCCS)N[*:1])[*:2]].N.P.K.Q.[dK].W}$PEPTIDE1,PEPTIDE1,1:R1-8:R2$$$V2.0)",
    "target_entity": "HDAC6 (Homo sapiens, UniProt Q9UBN7)",
    "experimental_result": 16681
  },
  {
    "molecule": "CC(C)[C@@H]1NC(=O)[C@H](CCCNC(=N)N)NC(=O)[C@@H](CC(=O)O)NC(=O)[C@H](CO)NC(=O)[C@@H](CO)NC(=O)[C@@H](CCC(=O)O)NC(=O)[C@H](Cc2ccc(O)cc2)NC(=O)[C@H](CCCCCS)NC1=O [des4.2.0, SHA-Tyr-dGlu-dSer-Ser-dAsp-Arg-Val] (HELM PEPTIDE1{R.V.[O=C([C@H](CCCCCS)N[*:1])[*:2]].Y.[dE].[dS].S.[dD]}$PEPTIDE1,PEPTIDE1,1:R1-8:R2$$$V2.0)",
    "target_entity": "HDAC6 (Homo sapiens, UniProt Q9UBN7)",
    "experimental_result": 106610
  },
  {
    "molecule": "CCCC[C@H]1NC(=O)[C@H](Cc2ccccc2)NC(=O)[C@H](CCCCCS)NC(=O)[C@@H](CO)NC(=O)[C@H](CC(=O)O)NC(=O)[C@@H](CO)NC(=O)[C@@H](C)NC(=O)[C@H](CCCCN)NC1=O [des4.3.1.1, SHA-Phe-dNle-Lys-dAla-dSer-Asp-dSer] (HELM PEPTIDE1{D.[dS].[O=C([C@H](CCCCCS)N[*:1])[*:2]].F.[CCCC[C@@H](N[*:1])C(=O)[*:2]].K.[dA].[dS]}$PEPTIDE1,PEPTIDE1,1:R1-8:R2$$$V2.0)",
    "target_entity": "HDAC6 (Homo sapiens, UniProt Q9UBN7)",
    "experimental_result": 615445
  }
]

====

- target_entity: HDAC2 (Homo sapiens)
- Construct: purchased Reaction Biology Corporation (assay run by the CRO)
- Sequence (Q92769 whole entry): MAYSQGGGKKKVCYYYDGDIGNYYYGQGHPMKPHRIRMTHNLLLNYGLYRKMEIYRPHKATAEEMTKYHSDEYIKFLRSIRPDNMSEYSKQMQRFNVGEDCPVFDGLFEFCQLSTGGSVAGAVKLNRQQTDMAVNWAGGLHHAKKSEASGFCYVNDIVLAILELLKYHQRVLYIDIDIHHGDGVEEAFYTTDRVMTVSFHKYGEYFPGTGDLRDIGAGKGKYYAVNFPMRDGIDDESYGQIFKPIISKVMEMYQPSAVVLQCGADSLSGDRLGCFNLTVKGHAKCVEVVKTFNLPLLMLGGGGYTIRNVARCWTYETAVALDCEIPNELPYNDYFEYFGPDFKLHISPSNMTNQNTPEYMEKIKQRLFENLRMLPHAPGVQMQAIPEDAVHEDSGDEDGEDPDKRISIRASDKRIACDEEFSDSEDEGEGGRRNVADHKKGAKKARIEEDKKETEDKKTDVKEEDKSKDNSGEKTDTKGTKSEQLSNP
- assay_comment: HDAC2 inhibition, full IC50 measurement (Reaction Biology; fluorogenic p53 peptide RHKK(Ac)AMC)
- Assay type: biochemical
- measurement_conditions: Conc. 3.33E-06 M, t2
- Experimental: The assay was performed using 50 μM fluorogenic peptide from p53 residues 379-382 [RHKK(Ac)AMC] in a base reaction buffer of 50 mM Tris-HCl at pH 8.0, 137 mM NaCl, 2.7 mM KCl, 1 mM MgCl2, and freshly added 1 mg/ml BSA and 1% DMSO. […] Peptide concentrations were calculated based on mass of lyophilized peptide and its molecular weight. […]
Peptide text beside a SMILES is read from it.
measurement_label: HDAC2 activity raw data (signal)

[
  {
    "compound": "C[C@H](O)[C@H]1NC(=O)[C@H](Cc2c[nH]c3ccccc23)NC(=O)[C@H](CCCCCS)NC(=O)[C@H](CCCCN)NC(=O)[C@@H](CC(=O)O)NC(=O)[C@@H](CCCCN)NC(=O)[C@@H](CO)NC(=O)[C@H](CC(N)=O)NC(=O)[C@H](CC(=O)O)NC1=O [des2.1.0, SHA-Trp-dThr-Asp-Asn-dSer-dLys-dAsp-Lys] (HELM PEPTIDE1{D.N.[dS].[dK].[dD].K.[O=C([C@H](CCCCCS)N[*:1])[*:2]].W.[dT]}$PEPTIDE1,PEPTIDE1,1:R1-9:R2$$$V2.0)",
    "target_entity": "HDAC2 (Homo sapiens)",
    "measurement_label": "HDAC2 activity raw data (signal)",
    "experimental_result": 19470
  }
]

====

- target_entity: HDAC2 (Homo sapiens)
- Construct: purchased Reaction Biology Corporation (assay run by the CRO)
- assay_comment: HDAC2 inhibition, full IC50 measurement (Reaction Biology; fluorogenic p53 peptide RHKK(Ac)AMC)
- Type: biochemical
Peptide text beside a SMILES is read from it.
2-Selectivity: fold potency for HDAC2 over HDAC6 by entry:
measurement_label: 2-Selectivity: fold potency for HDAC2 over HDAC6 (fold)

[
  {
    "compound": "N=C(N)NCCC[C@@H]1NC(=O)[C@@H](CCCNC(=N)N)NC(=O)[C@H]2CCCN2C(=O)[C@@H](Cc2c[nH]cn2)NC(=O)[C@H](Cc2ccc(O)cc2)NC(=O)[C@H](CCCCCS)NC(=O)[C@H](CCc2ccccc2)NC(=O)[C@@H](CCCCN)NC(=O)[C@H](CC(=O)O)NC1=O [des3.2.0, SHA-Tyr-dHis-dPro-dArg-Arg-Asp-dLys-C27] (HELM PEPTIDE1{D.[dK].[O=C([C@H](CCc1ccccc1)N[*:1])[*:2]].[O=C([C@H](CCCCCS)N[*:1])[*:2]].Y.[dH].[dP].[dR].R}$PEPTIDE1,PEPTIDE1,1:R1-9:R2$$$V2.0)",
    "target_entity": "HDAC2 (Homo sapiens)",
    "experimental_result": 0.53
  },
  {
    "compound": "N=C(N)NCCC[C@@H]1NC(=O)[C@@H](CCCNC(=N)N)NC(=O)[C@H]2CCCN2C(=O)[C@@H](Cc2c[nH]cn2)NC(=O)[C@H](Cc2ccc(O)cc2)NC(=O)[C@H](CCCCCS)NC(=O)[C@H](CCc2ccccc2)NC(=O)[C@H]2CCCN2C(=O)[C@H](CC(=O)O)NC1=O [des3.2.1, SHA-Tyr-dHis-dPro-dArg-Arg-Asp-dPro-C27] (HELM PEPTIDE1{D.[dP].[O=C([C@H](CCc1ccccc1)N[*:1])[*:2]].[O=C([C@H](CCCCCS)N[*:1])[*:2]].Y.[dH].[dP].[dR].R}$PEPTIDE1,PEPTIDE1,1:R1-9:R2$$$V2.0)",
    "target_entity": "HDAC2 (Homo sapiens)",
    "experimental_result": 0.44
  }
]

====

- target_entity: HDAC3 (Homo sapiens)
- Construct: purchased Reaction Biology Corporation (assay run by the CRO)
- Sequence (O15379 whole entry): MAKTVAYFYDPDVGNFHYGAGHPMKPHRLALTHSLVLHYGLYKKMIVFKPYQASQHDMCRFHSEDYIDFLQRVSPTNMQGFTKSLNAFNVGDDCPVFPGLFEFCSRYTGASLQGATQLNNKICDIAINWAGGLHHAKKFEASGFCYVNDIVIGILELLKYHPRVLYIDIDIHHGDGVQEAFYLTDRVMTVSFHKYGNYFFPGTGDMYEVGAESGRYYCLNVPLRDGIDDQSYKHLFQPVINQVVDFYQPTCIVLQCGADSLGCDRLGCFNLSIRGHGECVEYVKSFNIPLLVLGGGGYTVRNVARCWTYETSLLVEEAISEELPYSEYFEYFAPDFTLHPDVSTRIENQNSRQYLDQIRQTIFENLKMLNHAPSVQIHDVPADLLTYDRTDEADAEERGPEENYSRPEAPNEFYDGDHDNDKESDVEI
- Sequence (Q9Y618 395-489 partner limits assumed): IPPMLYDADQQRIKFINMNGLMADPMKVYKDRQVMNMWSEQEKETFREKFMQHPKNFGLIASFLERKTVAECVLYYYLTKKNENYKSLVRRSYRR
- assay_comment: HDAC3 inhibition, full IC50 measurement (Reaction Biology; fluorogenic p53 peptide RHKK(Ac)AMC)
- Assay type: biochemical
- measurement_conditions: Conc. 1.37E-08 M, t2
Peptide text beside a SMILES is read from it.
measurement_label: HDAC3 activity raw data (signal)

[
  {
    "compound": "CC(C)C[C@H]1NC(=O)[C@H](Cc2c[nH]c3ccccc23)NC(=O)[C@H](CCCCCS)NC(=O)[C@@H](Cc2ccc(O)cc2)NC(=O)[C@@H](C(C)C)NC(=O)[C@H](Cc2c[nH]cn2)NC(=O)CNC(=O)CNC(=O)[C@@H](CO)NC1=O [des2.2.0, SHA-Trp-dLeu-dSer-Gly-Gly-His-dVal-dTyr] (HELM PEPTIDE1{G.G.H.[dV].[dY].[O=C([C@H](CCCCCS)N[*:1])[*:2]].W.[dL].[dS]}$PEPTIDE1,PEPTIDE1,1:R1-9:R2$$$V2.0)",
    "experimental_result": 1085089
  },
  {
    "compound": "N=C(N)NCCC[C@@H]1NC(=O)[C@@H](CCCNC(=N)N)NC(=O)[C@H]2CCCN2C(=O)[C@@H](Cc2c[nH]cn2)NC(=O)[C@H](Cc2ccc(O)cc2)NC(=O)[C@H](CCCCCS)NC(=O)[C@H](CCc2ccccc2)NC(=O)[C@@H](CO)NC(=O)[C@H](CC(=O)O)NC1=O [des3.3.1, SHA-Tyr-dHis-dPro-dArg-Arg-Asp-dSer-C27] (HELM PEPTIDE1{[O=C([C@H](CCCCCS)N[*:1])[*:2]].Y.[dH].[dP].[dR].R.D.[dS].[O=C([C@H](CCc1ccccc1)N[*:1])[*:2]]}$PEPTIDE1,PEPTIDE1,1:R1-9:R2$$$V2.0)",
    "experimental_result": 111435
  }
]

====

- target_entity: HDAC2 (Homo sapiens)
- Construct: purchased Reaction Biology Corporation (assay run by the CRO)
- assay_comment: HDAC2 inhibition, full IC50 measurement (Reaction Biology; fluorogenic p53 peptide RHKK(Ac)AMC)
- Type: biochemical
- measurement_conditions: read-out: HDAC2 IC50
measurement_label: IC50 (µM)

[
  {
    "compound_smiles": "N[C@@H](CCCCCS)C(=O)O",
    "target_entity": "HDAC2 (Homo sapiens)",
    "units": "µM",
    "experimental_result": 5.4
  }
]

Entry source: paper PMC8185074
